System: Abelson 8.1 tumor cells
TEST: Influence on Cytotoxicity of ET-18-OCH3 test
Type: cell-based
CONDITION_SUMMARY: 5 μg test compound, 72 hours; mouse bone marrow cell macrophages preincubated with 10 μg ET-18-OCH3 for 24 hours; ET-18-OCH3 alone set at 100%
For each entry below, report its % Enhancement (of the cytotoxic effect of ET-18-OCH3) value.
The reply should be a number in %, with the unit left off.

Data request: Need % Enhancement (of the cytotoxic effect of ET-18-OCH3), item CCCCCCCCCCCCCCCCCCC1(COP(=O)([O-])OCC[N+](C)(C)C)CCOC1 (stereo not shown) [Example 7]
Data returned: 90

Data request: Which % Enhancement (of the cytotoxic effect of ET-18-OCH3) value is on record for CCCCCCCCCCCCCCCCCCC1(COP(=O)([O-])OCC[N+](C)(C)C)CCC(=O)O1 (stereo not shown) [Example 2] ?
Data returned: 99.5

Data request: Given the compound CCCCCCCCCCCCCCCCCCC1(COP(=O)([O-])OCC[N+](C)(C)C)COC(=O)C1 (stereo not shown) [Example 6] , what is its reported % Enhancement (of the cytotoxic effect of ET-18-OCH3)?
Data returned: 90
